studySystem: UniProt:P29597
testProtocol: TYK2 (TYK2/JAK2 PSTAT4 T-BLAST) Alpha Screen Assay
EC50 values by entry
measurementLabel: EC50 (nM)

COc1cc(-c2cn(C3COC3)c3cnc(NC(C)=O)cc23)nc([C@@]2(OC)CCOC2)c1 ... 353
CO[C@]1(c2cc(C#N)cc(-c3cn([C@@H]4CC4(F)F)c4cnc(NC(C)=O)cc34)n2)CCOC1 ... 749
CO[C@@]1(c2cc(C)cc(-c3cn(C)c4cnc(NC(C)=O)cc34)n2)CCOC1 ... 198
CO[C@]1(c2cncc(-c3cn(C)c4cnc(NC(C)=O)cc34)n2)CCOC1 ... 716
CO[C@@]1(c2cc(C(F)F)cc(-c3cn([C@H]4C[C@H](C#N)C4)c4cnc(NC(C)=O)cc34)n2)CCOC1 ... 144
CO[C@@]1(c2cccc(-c3c[nH]c4cnc(NC(C)=O)cc34)n2)CCOC1 ... 1520
CO[C@]1(c2cccc(-c3cn(C)c4cnc(NC(C)=O)cc34)n2)CCOC1 [US20190276450, Example 16a] ... 1590
CO[C@@]1(c2cc(O[C@H]3C[C@H](O)C3)cc(-c3cn(C)c4cnc(NC(C)=O)cc34)n2)CCOC1 ... 52
CO[C@@]1(c2cc(C)cc(-c3cn([C@H]4C[C@@H](C#N)C4)c4cnc(NC(C)=O)cc34)n2)CCOC1 ... 5
COCc1cc(-c2cn(C)c3cnc(NC(C)=O)cc23)nc([C@]2(CO)CCOC2)c1 ... 146
CO[C@@]1(c2cccc(-c3cn([C@@H]4CC4(F)F)c4cnc(NC(N)=O)cc34)n2)CCOC1 ... 45
COCc1cc(-c2cn(C)c3cnc(NC(C)=O)cc23)nc([C@@]2(CO)CCOC2)c1 [US20190276450, Example 22a] ... 1200
CO[C@@]1(c2cc(OCC[C@H](C)O)cc(-c3cn(C)c4cnc(NC(C)=O)cc34)n2)CCOC1 ... 85
CC(=O)Nc1cc2c(-c3cccc([C@@]4(CO)CCOC4)n3)cn(C)c2cn1 [US20190276450, Example 21a] ... 1310
CO[C@@]1(c2cc(C#N)cc(-c3cn([C@@H]4CC4(F)F)c4cnc(NC(N)=O)cc34)n2)CCOC1 [US20190276450, Example 12a.3] ... 66
CO[C@]1(c2cccc(-c3cn(C)c4cnc(NC(N)=O)cc34)n2)CCOC1 ... 468
CC(=O)Nc1cc2c(-c3cccc([C@]4(CO)CCOC4)n3)cn(C)c2cn1 ... 80
CO[C@@]1(c2cccc(-c3cn(C)c4cnc(NC(C)=O)cc34)n2)CCOC1 ... 310
CO[C@@]1(c2cc(OCC[C@@H](C)O)cc(-c3cn(C)c4cnc(NC(C)=O)cc34)n2)CCOC1 ... 878
COc1cc(-c2cn(C)c3cnc(NC(N)=O)cc23)nc([C@]2(OC)CCOC2)c1 ... 39
NC(=O)Nc1cc2c(-c3cccc(C4(O)COC4)n3)cn([C@@H]3CCOC3)c2cn1 ... 908
CO[C@@]1(c2cncc(-c3cn(C)c4cnc(NC(N)=O)cc34)n2)CCOC1 ... 244

----------
EC50 values by entry
studySystem: Non-receptor tyrosine-protein kinase TYK2 (Homo sapiens, UniProt P29597)
Sequence (P29597 whole entry): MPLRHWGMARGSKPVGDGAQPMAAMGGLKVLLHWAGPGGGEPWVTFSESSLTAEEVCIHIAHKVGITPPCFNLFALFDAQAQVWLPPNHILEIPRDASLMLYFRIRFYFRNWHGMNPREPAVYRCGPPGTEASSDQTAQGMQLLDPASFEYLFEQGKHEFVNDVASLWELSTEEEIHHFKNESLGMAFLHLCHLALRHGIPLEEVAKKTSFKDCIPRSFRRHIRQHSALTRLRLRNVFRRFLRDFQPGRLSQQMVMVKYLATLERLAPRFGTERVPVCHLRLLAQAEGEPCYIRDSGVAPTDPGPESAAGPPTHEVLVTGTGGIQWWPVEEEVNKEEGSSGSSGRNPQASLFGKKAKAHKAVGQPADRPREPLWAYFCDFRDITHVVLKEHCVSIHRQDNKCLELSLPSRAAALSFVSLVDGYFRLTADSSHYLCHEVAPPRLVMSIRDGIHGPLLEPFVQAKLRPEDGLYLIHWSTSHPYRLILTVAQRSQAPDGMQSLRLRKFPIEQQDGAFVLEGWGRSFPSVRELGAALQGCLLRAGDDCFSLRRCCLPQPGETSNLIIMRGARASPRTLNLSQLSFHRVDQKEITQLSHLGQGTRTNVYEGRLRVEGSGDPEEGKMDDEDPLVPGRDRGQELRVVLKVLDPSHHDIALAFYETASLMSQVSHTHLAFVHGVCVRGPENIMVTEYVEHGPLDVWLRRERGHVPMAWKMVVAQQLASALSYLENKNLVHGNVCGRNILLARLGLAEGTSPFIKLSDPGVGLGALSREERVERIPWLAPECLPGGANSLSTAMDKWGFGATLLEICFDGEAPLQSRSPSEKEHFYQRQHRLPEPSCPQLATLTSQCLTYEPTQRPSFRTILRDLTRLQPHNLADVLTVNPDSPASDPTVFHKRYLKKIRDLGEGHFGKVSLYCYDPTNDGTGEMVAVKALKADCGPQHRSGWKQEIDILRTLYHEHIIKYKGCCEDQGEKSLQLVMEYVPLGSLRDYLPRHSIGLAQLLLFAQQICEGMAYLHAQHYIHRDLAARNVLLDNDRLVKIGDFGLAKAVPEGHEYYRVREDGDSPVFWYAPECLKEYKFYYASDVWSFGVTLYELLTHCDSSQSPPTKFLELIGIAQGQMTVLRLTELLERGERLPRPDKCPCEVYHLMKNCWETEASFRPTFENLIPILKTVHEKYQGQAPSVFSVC
testProtocol: TYK2 (TYK2/JAK2 PSTAT4 T-BLAST) Alpha Screen Assay
measurementLabel: EC50 (nM)

CC(=O)Nc1cc2c(-c3cc(OC(C)C)cc(C4(O)COC4)n3)cn(C)c2cn1 ... 339
CO[C@@]1(c2cc(OC3COC3)cc(-c3cn(C)c4cnc(NC(C)=O)cc34)n2)CCOC1 ... 90
COCc1cc(-c2cn(C)c3cnc(NC(C)=O)cc23)nc([C@]2(OC)CCOC2)c1 ... 126
CO[C@@]1(c2cc(C#N)cc(-c3cn(C)c4cnc(NC(C)=O)cc34)n2)CCOC1 ... 268
CC[C@@]1(c2cccc(-c3cn(C)c4cnc(NC(N)=O)cc34)n2)CCOC1 ... 14
CO[C@]1(c2cc(O[C@H]3C[C@H](O)C3)cc(-c3cn(C)c4cnc(NC(C)=O)cc34)n2)CCOC1 [US20190276450, Example 11a] ... 496
CC[C@]1(c2cccc(-c3cn(C)c4cnc(NC(N)=O)cc34)n2)CCOC1 ... 388
